runDescription: cell viability assay (cytotoxicity) in HEK293 cells
Format: cell-based
protocolConditions: human, read-out: CC50 (50% cytotoxicity concentration)
Kindly supply the reported CC50 values for the records listed here.

{"columns": ["compoundStructure", "reportedEndpoint", "endpointValue"],
 "data": [
  ["Cn1c(=O)[nH]c(=O)c2c1nc(N1CCN(Cc3ccc(C(C)(C)C)cc3)CC1)n2Cc1ccccc1C(F)(F)F", "CC50", "12.4 µM"],
  ["Cc1ccc(C)c(CN2CCN(c3nc4c(c(=O)[nH]c(=O)n4C)n3Cc3ccc(F)cc3F)CC2)c1", "CC50", "> 40 µM"],
  ["Cn1c(=O)n(CO)c(=O)c2c1nc(N1CCN(Cc3ccc(C(C)(C)C)cc3)CC1)n2Cc1ccccc1F", "CC50", "16.8 µM"]
]}

Kindly give each listed record's CC50.
1. Cc1ccc(C)c(N2CCN(c3nc4c(c(=O)[nH]c(=O)n4C)n3Cc3ccccc3F)CC2)c1
2. Cn1c(=O)[nH]c(=O)c2c1nc(N1CCN(Cc3ccc(C(C)(C)C#N)cc3)CC1)n2Cc1ccccc1F
3. Cn1c(=O)[nH]c(=O)c2c1nc(N1CCN(C(=O)Cc3ccc(C(C)(C)C)cc3)CC1)n2Cc1ccccc1F
4. Cc1ccc(C)c(C(=O)N2CCN(c3nc4c(c(=O)[nH]c(=O)n4C)n3Cc3ccccc3F)CC2)c1
5. Cc1cc(C)cc(N2CCN(c3nc4c(c(=O)[nH]c(=O)n4C)n3Cc3ccccc3F)CC2)c1

1. 2.8 µM
2. > 40 µM
3. > 30 µM
4. > 40 µM
5. > 30 µM

Go through the items and report each one's CC50.
1. CCn1c(N2CCN(Cc3cc(C)ccc3C)CC2)nc2c1c(=O)[nH]c(=O)n2C
2. Cn1c(=O)[nH]c(=O)c2c1nc(N1CCN(Cc3ccc(C(C)(C)C)cc3)CC1)n2Cc1ccncc1F
3. Cc1ccc(C)c(CN2CCN(c3nc4c([nH]3)c(=O)n(Cc3ccccc3F)c(=O)n4C)CC2)c1
4. Cc1ccc(C)c(CN2CCN(c3nc4c(c(=O)[nH]c(=O)n4C)n3Cc3ccccc3C#N)CC2)c1
5. Cc1ccc(C)c(CN2CCN(c3nc4c(c(=O)n(C)c(=O)n4C)n3Cc3ccccc3F)CC2)c1

1: > 40 µM; 2: 22.1 µM; 3: > 40 µM; 4: > 30 µM; 5: > 40 µM

# batch size: 2; output CC50 per entry
1. Cn1c(=O)[nH]c(=O)c2c1nc(N1CCN(Cc3ccc(C(C)(C)O)cc3)CC1)n2Cc1ccccc1F
2. Cn1c(=O)[nH]c(=O)c2c1nc(N1CCN(Cc3ccc(C(C)(C)C)cc3)CC1)n2Cc1ccccc1F

["> 40 µM", "> 30 µM"]

----------
runDescription: cell viability assay (cytotoxicity) in HEK293 cells
Type: cell-based
protocolConditions: human, read-out: CC50 (50% cytotoxicity concentration)
reportedEndpoint: CC50

Please review the following examples before continuing.
{"columns": ["compound", "CC50"],
 "data": [
  ["Cc1ccc(C)c(CN2CCN(c3nc4c(c(=O)[nH]c(=O)n4C)n3Cc3cccc(F)c3)CC2)c1", "> 30 µM"],
  ["Cn1c(=O)[nH]c(=O)c2c1nc(N1CCN(Cc3ccc(C(C)(C)C)cc3)C(C(=O)O)C1)n2Cc1ccccc1F (stereo not drawn)", "> 40 µM"],
  ["COC(=O)c1ccc(Cn2c(N3CCN(Cc4ccc(C(C)(C)C)cc4)CC3)nc3c2c(=O)[nH]c(=O)n3C)c(F)c1", "21.4 µM"]
]}

Could I get CC50 for every one of these entries?
1. Cn1c(=O)[nH]c(=O)c2c1nc(N1CCN(Cc3ccc(F)cc3)CC1)n2Cc1ccccc1F
2. Cc1ccc(C)c(CN2CCN(c3nc4c(c(=O)[nH]c(=O)n4C)n3Cc3ccccc3F)CC2)c1
3. Cn1c(=O)[nH]c(=O)c2c1nc(N1CCN(C(=O)c3ccc(C(C)(C)C)cc3)CC1)n2Cc1ccccc1F
4. Cn1c(=O)[nH]c(=O)c2c1nc(N1CCN(Cc3ccc(C(C)(C)C)cc3)CC1)n2Cc1ccccc1OC(F)(F)F
5. Cn1c(=O)[nH]c(=O)c2c1nc(N1CCN(Cc3ccc(C(C)(C)C)nc3)CC1)n2Cc1ccccc1F
6. Cn1c(=O)[nH]c(=O)c2c1nc(N1CCOCC1)n2Cc1ccccc1F

1: > 30 µM; 2: 12 µM; 3: > 30 µM; 4: 10.2 µM; 5: 34.2 µM; 6: > 40 µM

For every item below, please supply its CC50.
1. Cn1c(=O)[nH]c(=O)c2c1nc(N1CCC(c3cccc(F)c3)CC1)n2Cc1ccccc1F
2. Cn1c(=O)[nH]c(=O)c2c1nc(N1CCN(Cc3ccc(C(C)(C)C)cc3)CC1)n2Cc1ccc(C(=O)O)cc1F
3. Cn1c(=O)[nH]c(=O)c2c1nc(N1CCN(c3cccc(C(C)(C)C)c3)CC1)n2Cc1ccccc1F

["> 30 µM", "> 40 µM", "> 40 µM"]

For every item in the list below, what is its measured CC50?
1. CC(C)(C)c1ccc(CN2CCN(c3nc4[nH]c(=O)[nH]c(=O)c4n3Cc3ccccc3F)CC2)cc1
2. Cc1ccc(C)c(CN2CCN(c3nc4c(c(=O)[nH]c(=O)n4C)n3Cc3ccc(F)cc3)CC2)c1
3. Cn1c(=O)[nH]c(=O)c2c1nc(N1CCN(c3ccc(C(F)(F)F)cc3)CC1)n2Cc1ccccc1F

["10 µM", "> 30 µM", "12.9 µM"]
